# Procedure Text: Solubility at room temperature, manual dilution combined with visual observation
# Assay type: physicochemical
# Reported Conditions: ethyl acetate; room temperature; read-out: Solubility
Where a SMILES comes first, the peptide text is derived from it. The star is where a group is joined. Palmitoyl = CCCCCCCCCCCCCCCC(=O)*
Below, each entry is listed alongside its reported solubility.

CCCCCCCCCCCCCCCC(=O)N1CCC[C@H]1C(=O)N1CCC[C@H]1C(=O)NCC(=O)N[C@@H](Cc1ccc(O)cc1)C(=O)O [Compound II] (Palmitoyl-PPGY-OH): < 1 mg/mL

Shifting focus to the compound that follows.
Query: Report solubility, nothing else, for this compound: CCCCCCCCCCCCCCCC(=O)N1CCC[C@H]1C(=O)N1CCC[C@H]1C(=O)NCC(=O)N[C@@H](Cc1ccc(O)cc1)C(=O)[O-].[Na+] [Compound I] (Palmitoyl-PPGY-OH)
Result: < 1 mg/mL
